Data credit: paper PMC10298284

Property: IC50; scope: individual compounds
Biological target: recombinant human LDHA (Homo sapiens)
Construct: purchased Abcam
Test: hLDHA enzymatic activity assay (kinetic spectrofluorimetric, β-NADH fluorescence decrease)
Format: biochemical
Conditions: mean ± SD of n = 3 replicates; 1 mM pyruvate, 155 µM β-NADH, pH 7.3, 28 °C; read-out: hLDHA IC50
Description: Briefly, the decrease in the coenzyme β-NADH fluorescence (λemission = 460 nm) was measured for 10 min, at different concentration of inhibitors, and its slope was compared with the one obtained when there were not inhibitors added (100% enzymatic activity). […]
Note: unit µM is implicit; provide only the numeric part.

Data request: Provide recombinant human LDHA (Homo sapiens) IC50 reading for COc1ccc(C2CC3=C(C(=O)O2)C2CC(c4ccc(OC)c(OC)c4)(O3)Oc3ccccc32)cc1 (racemic) [(±)-64a] .
Data returned: 52.8

Data request: Provide recombinant human LDHA (Homo sapiens) IC50 reading for COc1ccc(C2CC3=C(C(=O)O2)C2CC(c4ccc(OC)c(OC)c4)(O3)Oc3ccccc32)cc1 (racemic) [(±)-64b] .
Data returned: 96.7

Data request: Provide recombinant human LDHA (Homo sapiens) IC50 reading for O=c1oc2ccccc2c2c1C1CC(c3ccc(O)cc3)(Oc3ccccc31)O2 (racemic) [(±)-51] .
Data returned: 34.4
